Reported GI50 values for a set of compounds
Test system: MCF7 breast
protocol notes: NCI tumour cell line growth inhibition, 48 h

CN(C)C=Nc1c(I)cc(I)c(CCC(=O)O)c1I > 100 µM

What value of measured GI50 is listed for COc1cc(CCC(=O)NC[C@@H](O)c2ccccc2)ccc1O ? > 100 µM

What value of measured GI50 is listed for O=C(O)c1cn(C2CC2)c2cc(N3CCN(Cc4c(O)ccc5ccccc45)CC3)c(F)cc2c1=O ? 5.63 µM

What value of measured GI50 is listed for O=C1NC(=NCCc2ccccn2)S/C1=C\c1ccc2ncccc2c1 ? 10.5 µM

###

Test system: UO-31 renal
protocol notes: NCI tumour cell line growth inhibition, 48 h
Residues, ends and D or L forms follow the SMILES beside them. *: point of attachment. Cbz = O=C(OCc1ccccc1)*
Think of 20 µM as a floor: if TGI stands on it or above, it is rule met; beneath it, rule not met.

molecule	group label
Cc1ccsc1-c1ccc2c(c1)COC2(CCCN(C)C)c1ccc(F)cc1 (stereo not drawn)	rule not met
CC(=O)n1[nH]c(=O)n(-c2ccccc2)c1=O	rule met
CC(C)C[C@@H](C=O)NC(=O)[C@H](CC(C)C)NC(=O)[C@H](CC(C)C)NC(=O)OCc1ccccc1 (Cbz-Leu-Leu-Leu-aldehyde)	rule not met
CC(C)c1ccc(/C=C/c2cc(C(=O)NNC(=O)NC3CCCCC3)nc(=S)[nH]2)cc1	rule met
Cc1ccc(S(=O)(=O)OCCOCCOCCOCCOCCOS(=O)(=O)c2ccc(C)cc2)cc1	rule met

Dear colleague, could you confirm whether Cc1ccc(C2=Nc3ccccc3S(=O)C(c3ccc4c(c3)OCO4)C2)cc1 (stereo not drawn) has TGI at or above 20 µM? rule met

Dear colleague, could you confirm whether Cc1sc2c(c1C)C(c1ccc(Cl)cc1)=N[C@@H](CC(=O)NCCCN1CCN(C)CC1)c1nnc(C)n1-2 has TGI at or above 20 µM? rule met

Dear colleague, could you confirm whether Cn1c(=O)ccc2c(=O)c3ccccc3oc21 has TGI at or above 20 µM? rule not met

###

Test system: RXF-631 renal
protocol notes: NCI tumour cell line growth inhibition, 48 h
parameter: TGI

A selection of reference data follows.
compound	tested target	parameter	recorded result
CC(C)c1ccc(/C=C/c2cc(C(=O)NNC(=O)NC3CCCCC3)nc(=S)[nH]2)cc1	RXF-631 renal	TGI	> 100 µM
NC(CCCCNCc1ccccc1)C(=O)O (stereo not given)	RXF-631 renal	TGI	> 100 µM

What value of measured TGI is listed for Cc1ccc(C(=O)NCCN(C)C)c2nc3ccccc3cc12 ? 12 µM

What value of measured TGI is listed for C=C1CC2(CCS(=O)(=O)c3ccccc32)OC1=O (stereo not given) ? 43.4 µM

What value of measured TGI is listed for CCCCCCCCCCCCSC(=S)c1c(C)[nH]n(CCCCCCCCCCCC)c1=O ? > 100 µM

What value of measured TGI is listed for COc1ccc(/C=C/C(=O)c2sc(-c3cccnc3)nc2C)cc1 ? > 100 µM

What value of measured TGI is listed for NC(N)=NS(=O)(=O)c1ccc(NC(=O)c2cccc3c(N)c4ccccc4nc23)cc1 ? > 100 µM

What value of measured TGI is listed for CC(=O)NC1COC(COC(=O)CCCCCCCCCCNC(=O)c2ccc([N+](=O)[O-])c3c(=O)c4ccccc4[nH]c23)C(O)C1OC(C)C(=O)NC(C(=O)NC(CCC(N)=O)C(=O)OCc1ccccc1)C(C)C (stereo not given) ? > 100 µM

What value of measured TGI is listed for Cc1ccc(Sc2ccccc2N)cc1 ? > 100 µM

What value of measured TGI is listed for O=C(O)c1c2c(cc3c(=O)cc(-c4ccccc4)oc13)CCCC2 ? > 100 µM

###

System: HCT-15 colon
protocol notes: NCI tumour cell line growth inhibition, 48 h
parameter: TGI

A selection of reference data follows.
compound	TGI
CCCCCCCCCCOCCOCCOCCOCCCCC(O)CCCCCCCC1=C[C@H](C)OC1=O (stereo partly specified)	23.9 µM
COc1cc2c(c(OC)c1OC)-c1c(c3ccc([N+](=O)[O-])cc3c(=O)n1CCCN)C2=O	16.8 µM
Cn1cc(-c2nnc(-c3ccc(Cl)cc3)[nH]c2=O)c2ccccc21	> 100 µM
CC(C)C(=O)c1c(C(F)(F)F)n([O-])c2ccccc2[n+]1=O	> 27.1 µM
COc1cc2nc3cc([N+](=O)[O-])ccc3c(NCCNCC(C)O)c2cc1OC (stereo unspecified)	13.1 µM
O=c1[nH]c(=O)n(CCOCP(=O)(O)O)nc1Br	> 100 µM
Cn1c2cn[nH]c(=O)c2c2ccc3ccccc3c21	> 100 µM
O=C(NCCCN(CCCCN(CCCNC(=O)c1cc(S(=O)(=O)O)cc(O)c1O)C(=O)c1cc(S(=O)(=O)O)cc(O)c1O)C(=O)c1cc(S(=O)(=O)O)cc(O)c1O)c1cc(S(=O)(=O)O)cc(O)c1O	> 100 µM

What value of measured TGI is listed for CCCCCCCCCCCCCCCCN(CC)CC ? 3.66 µM

What value of measured TGI is listed for Cc1cccc(Cl)c1NC(=O)c1cnc(Nc2cc(N3CCOCC3)cc(S(C)(=O)=O)c2)s1 ? > 10 µM

###

Reported GI50 values for a set of compounds
System: SNB-19 CNS
protocol notes: NCI tumour cell line growth inhibition, 48 h

What value of measured GI50 is listed for Nc1ncn([C@H]2C[C@H](OP(=O)(O)OC[C@H]3O[C@@H](n4cnc5c(=O)[nH]c(N)nc54)C[C@@H]3O)[C@@H](CO)O2)c(=O)n1 ? > 100 µM

What value of measured GI50 is listed for [Cu+2].[NH-]C(CC(=O)O)C(=O)O.[NH-]C(CC(=O)O)C(=O)O (stereo not given) ? 49.5 µM

What value of measured GI50 is listed for CCCN(CCC)c1ccc(C=O)c(C)c1 ? 60.9 µM

###

Test system: A498 renal
protocol notes: NCI tumour cell line growth inhibition, 48 h
Reported TGI values for a set of compounds
The reply should be a number in µM, with the unit left off.

query smiles	recorded result
COc1ccc(Cn2cc3c(c2-c2cc(OC)c(OC)c(OC)c2)CCc2c(CO)noc2-3)cc1	3.03
c1ccc2c(CNCCCCCCCCNCc3cccc4ccccc34)cccc2c1	28.4
COC(=O)c1oc2c(C(=O)/C=C/c3ccc(OC)cc3)c(OCCN3CCOCC3)ccc2c1C	4.69
CN1CCN(Cc2nc3c(s2)CCc2sccc2-3)CC1	83.4
COc1cc(/C=C/C(=O)c2c(-c3ccc(F)cc3)nc3sc(C)nn23)cc(OC)c1OC	7.23

What value of measured TGI is listed for CN(C)Cc1c(C(=O)NCCOc2ccc(C(=O)NO)cc2)oc2ccccc12 ? 0.411

What value of measured TGI is listed for Oc1ccccc1/C=N\NC(=S)N/N=C/c1ccccc1O ? 21.9

What value of measured TGI is listed for Cn1cc(C2=C(c3cn(CCCCCO)c4ccccc34)C(=O)NC2=O)c2ccccc21 ? 14.3

###

Test system: PC-3 prostate
protocol notes: NCI tumour cell line growth inhibition, 48 h
parameter: TGI

A selection of reference data follows.
molecule	TGI
Cn1cc(-c2nnc(-c3ccc(Cl)cc3)[nH]c2=O)c2ccccc21	> 78.7 µM
N#Cc1c(-c2ccc(Cl)cc2)c2c([nH]c1=O)-c1cc([N+](=O)[O-])ccc1CCC2	> 100 µM

TGI of Cc1ccsc1-c1ccc2c(c1)COC2(CCCN(C)C)c1ccc(F)cc1 (stereo unspecified) on PC-3 prostate? 13.2 µM

TGI of Cc1sc2c(c1C)C(c1ccc(Cl)cc1)=N[C@@H](CC(=O)NCCCN1CCN(C)CC1)c1nnc(C)n1-2 on PC-3 prostate? > 100 µM

TGI of Cc1cc(=O)n2c3c(c4c(cc13)c(CN(C)C)cc(=O)n4C)OC2 on PC-3 prostate? > 59.2 µM

TGI of CCC1(c2ccc(N)cc2)CCC(=O)NC1=O (stereo unspecified) on PC-3 prostate? 4550 µM

TGI of Cc1[nH]nc2ncc(C(=O)N3CCC[C@H]3c3ccc(Cl)cc3)cc12 on PC-3 prostate? > 100 µM

TGI of Cc1cn(C2CCN(CC3COC(C)(C)O3)O2)c(=O)[nH]c1=O (stereo unspecified) on PC-3 prostate? > 100 µM

TGI of S=C1CC(c2ccccc2)Sc2cc(Cl)ccc2N1 (stereo unspecified) on PC-3 prostate? > 100 µM

TGI of CC(=O)NC1COC(COC(=O)CCCCCCCCCCNC(=O)c2ccc([N+](=O)[O-])c3c(=O)c4ccccc4[nH]c23)C(O)C1OC(C)C(=O)NC(C(=O)NC(CCC(N)=O)C(=O)OCc1ccccc1)C(C)C (stereo unspecified) on PC-3 prostate? 26.4 µM
